Reference source: ChEMBL document CHEMBL1201862

- Test system: HT-29
- protocol_details: NCI tumour cell line growth inhibition, 48 h
Activity calls are given as the source filed them. Cut-off read from the data, not from the text of the source: active = GI50 up to about 1.1 µM and inactive = higher.
// classify into active, inactive

Sample answers from the record:
| compound | assigned_category |
| --- | --- |
| CC(C)(C)C1CCC2c3c([nH]c4ccccc34)C3C(=O)N(c4ccccc4[N+](=O)[O-])C(=O)C3C2C1 (centres undefined) | inactive |
| Cc1coc2c1C(OC(=O)C(C)C)C1(C)C(C)CCC(O)C1C2=O (centres undefined) | inactive |
| O=S1(=O)OCCOS(=O)(=O)C1Br | inactive |
| C1CCN2CC34CC(CC5CCCN(C6CCCC3N6)C54)C2C1 (centres undefined) | inactive |
| OC1=CN=C(C2CC2)Oc2ccccc21 | inactive |
| Cc1ncc(CSc2ccccc2N)c(CO)c1O | inactive |

Query :: Which outcome did this test record for the compound Cc1cc(=O)oc2cc3oc(N(C)c4ccccc4)nc(=O)c3cc12 ?
Result :: inactive

Query :: Entry COc1ccc(CNc2nc(NCc3ccc(OC)cc3)nc(Nc3ccccc3)n2)cc1 : call = ?
Result :: inactive

Query :: Assay outcome for COc1ccc(CSc2ccccc2Cn2cccc2)cc1OC : what was it?
Result :: inactive

Query :: Per the assay record, what outcome was assigned to COC(=O)C(=O)CC(=O)c1cccc(OC)c1 ?
Result :: inactive

Query :: What classification did CCOC(=O)CC/C(=N/Nc1ccc(Cl)cc1[N+](=O)[O-])C(=O)OCC end up with in this test?
Result :: inactive

Query :: Can you look up the reported call for O=C(O)c1ccc(Nc2nc3cc(C(F)(F)F)ccc3n3cccc23)cc1 for me?
Result :: inactive

Query :: So what was the verdict on COc1cc(Br)c(/C=N\c2cccc3cc(OC)c(OC)cc23)cc1OC in this test?
Result :: inactive

Query :: Entry C=C(Cl)CN1c2ccccc2C=Cc2ccccc21 : call = ?
Result :: inactive

Query :: Test call, this compound: CC(=O)NC(=N/N=C1/C(=O)Nc2ccc(C)cc21)NC(C)=O
Result :: inactive

Query :: Recorded test outcome, item COc1ccc2c(c1)/C(=C(\C(Cl)=C(\Cl)N1CCCCC1)[N+](=O)[O-])N2
Result :: inactive

Query :: Identify the outcome logged in this assay for the compound shown: Cc1cccc(NC(=S)Nc2ccc(Cl)cc2)n1
Result :: inactive

Query :: Per the records of this test, what outcome belongs to N#CC1C(=O)N(c2ccccc2)NC12OC(=O)c1ccncc12 (centres undefined) ?
Result :: inactive

Query :: Hi, do you know how O=C(CCc1cc(O)cc(O)c1)NCCc1cc(OCc2ccccc2)cc(OCc2ccccc2)c1 came out in this test?
Result :: inactive

Query :: What did the test return for N#Cc1c(N2CCCC2)ncn(-c2ccccc2)c1=O ?
Result :: inactive

Query :: Identify the outcome logged in this assay for the compound shown: CN(CCN(C)C(=O)CCn1ccc(=O)[nH]c1=O)C(=O)CCn1ccc(=O)[nH]c1=O
Result :: inactive

Query :: Would you mind telling me which call this test gave COc1ccc(/C=C2\N=C(c3ccccc3)OC2=O)cc1OC(C)=O ?
Result :: inactive

Query :: For this compound, state the assay outcome: CC(C)(C)O/N=C/c1cc(NC(=S)c2ccccc2)ccc1Cl
Result :: inactive

* * *

- Tested on: MOLT-4
- protocol_details: NCI tumour cell line growth inhibition, 48 h
Activity calls are given as the source filed them. Rule as the data show it: active = GI50 up to about 1.1 µM and inactive = higher.
Assign GI50 to each entry below.

Sample records with GI50:
| compound | result |
| --- | --- |
| COc1cc2oc(-c3ccc(O)cc3O)c(CC=C(C)C)c(=O)c2c(O)c1/C=C/C(C)C [ARTOCARPIN] | 2.33 µM (inactive) |
| Cc1cn(C2CC(O)C(Cn3cc(Cn4ncc(=O)[nH]c4=O)nn3)O2)c(=O)[nH]c1=O (stereo not given) | > 100 µM (inactive) |
| CCOC(=O)CCN1C(=O)C(=O)N(c2ccc(OC)cc2)C1=S | > 100 µM (inactive) |
| CC(=O)Nc1ccc(-c2nnc(SCC(=O)Nc3cccc([N+](=O)[O-])c3)o2)cc1 | 4.39 µM (inactive) |

Below: the item to evaluate.
Entry COc1ccc(/C=C(/C#N)C(N)=O)c(OC)c1 ; GI50 = > 100 µM (inactive)
